Give Autosampler (24h, 4°C) Accuracy [%] for every item shown.
ASSAY PROCEDURE: Autosampler stability of ready for injection samples
Type: physicochemical, human
APPLIED CONDITIONS: validation standard 2xLLOV
Numbers only, in %.

Examples from the recorded data:
COc1cc2ncnc(Nc3ccc(F)c(Cl)c3)c2cc1NC(=O)/C=C/CN1CCCCC1    102.5
CN(C)C/C=C/C(=O)Nc1cc2c(Nc3ccc(F)c(Cl)c3)ncnc2cc1O[C@H]1CCOC1    103.2
N#CC[C@H](C1CCCC1)n1cc(-c2ncnc3[nH]ccc23)cn1    100.5
CC1(C)CCC(CN2CCN(c3ccc(C(=O)NS(=O)(=O)c4ccc(NCC5CCOCC5)c([N+](=O)[O-])c4)c(Oc4cnc5[nH]ccc5c4)c3)CC2)=C(c2ccc(Cl)cc2)C1    106.9

For each listed entry, give its Autosampler (24h, 4°C) Accuracy [%].
1. Cc1nc(Nc2ncc(C(=O)Nc3c(C)cccc3Cl)s2)cc(N2CCN(CCO)CC2)n1
2. CC(=O)c1c(C)c2cnc(Nc3ccc(N4CCNCC4)cn3)nc2n(C2CCCC2)c1=O
3. Cc1cc(Nc2ncc(Cl)c(Nc3ccccc3S(=O)(=O)C(C)C)n2)c(OC(C)C)cc1C1CCNCC1
4. O=c1[nH]c(=O)n([C@H]2C[C@H](O)[C@@H](CO)O2)cc1C(F)(F)F
5. CCN(CC)CCNC(=O)c1c(C)[nH]c(/C=C2\C(=O)Nc3ccc(F)cc32)c1C
6. CS(=O)(=O)c1ccc(C(=O)Nc2ccc(Cl)c(-c3ccccn3)c2)c(Cl)c1

[102.9, 99.9, 95.1, 117.8, 113.8, 105.1]

For each listed entry, give its Autosampler (24h, 4°C) Accuracy [%].
1. C[C@]12CC[C@H](O)CC1=CC[C@@H]1[C@@H]2CC[C@]2(C)C(c3cccnc3)=CC[C@@H]12
2. CC(=O)Nc1cccc(-n2c(=O)n(C3CC3)c(=O)c3c(Nc4ccc(I)cc4F)n(C)c(=O)c(C)c32)c1
3. CCc1cc2c(cc1N1CCC(N3CCOCC3)CC1)C(C)(C)c1[nH]c3cc(C#N)ccc3c1C2=O
4. CC[C@H](Nc1ncnc2[nH]cnc12)c1nc2cccc(F)c2c(=O)n1-c1ccccc1
5. O=C1CN2Cc3c(ccc(Cl)c3Cl)N=C2N1 [Anagrelide]
6. Cc1[nH]c2ccccc2c1CCNCc1ccc(/C=C/C(=O)NO)cc1

98.9
105.8
99.6
103.2
113.2
100.3

Reference source for all entries: paper PMC8699473
